Taken from patent US20090227647A1.

- target or test system: Amylin/IAPP fibrils (Homo sapiens, UniProt P10997)
- Sequence (P10997 34-70 limits assumed): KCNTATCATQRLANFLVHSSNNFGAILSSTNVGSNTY
- assay: Congo red binding assay, Amylin/IAPP fibrils
- Type: biochemical
- experimental context: Amylin/IAPP:test compound wt/wt ratio 1:0.001; 3-day incubation
Values of % Inhibition Amylin/IAPP (result ± S.D.), Congo red binding greater than or equal to 5% map to 1.0; values below map to 0.0.

Hi team, for CN(C(=O)c1ccc(O)c(O)c1)c1ccc(O)c(O)c1 [Compound 4] , is the recorded % Inhibition Amylin/IAPP (result ± S.D.), Congo red binding at or above 5%?
0.0

Hi team, for O=C(Nc1cccc(O)c1O)c1ccc(O)c(O)c1 [Compound 2] , is the recorded % Inhibition Amylin/IAPP (result ± S.D.), Congo red binding at or above 5%?
1.0

Hi team, for O=C(Nc1ccc(O)c(O)c1)c1cccc(O)c1O [Compound 1] , is the recorded % Inhibition Amylin/IAPP (result ± S.D.), Congo red binding at or above 5%?
0.0

Hi team, for Oc1ccc(-c2nnc(-c3ccc(O)c(O)c3)[nH]2)cc1O [Compound 7] , is the recorded % Inhibition Amylin/IAPP (result ± S.D.), Congo red binding at or above 5%?
1.0

Hi team, for O=C(Nc1cccc(O)c1O)c1cccc(O)c1O [Compound 3] , is the recorded % Inhibition Amylin/IAPP (result ± S.D.), Congo red binding at or above 5%?
1.0

Hi team, for Oc1ccc(C23CC4CC(C2)CC(c2ccc(O)c(O)c2)(C4)C3)cc1O [Compound 9, 1,3 bis(3,4 dihydroxyphenyl) Adamantane] , is the recorded % Inhibition Amylin/IAPP (result ± S.D.), Congo red binding at or above 5%?
1.0

Hi team, for Oc1ccc(-c2cc(-c3ccc(O)c(O)c3)[nH]n2)cc1O [Compound 8, 3,5 bis(3,4 Dihydroxyphenyl)Pyrazole] , is the recorded % Inhibition Amylin/IAPP (result ± S.D.), Congo red binding at or above 5%?
0.0

Hi team, for O=S(=O)(Nc1ccc(O)c(O)c1)c1ccc(O)c(O)c1 [Compound 5] , is the recorded % Inhibition Amylin/IAPP (result ± S.D.), Congo red binding at or above 5%?
0.0

Hi team, for Oc1ccc(-c2cnc(-c3ccc(O)c(O)c3)[nH]2)cc1O [Compound 6, 2,4 bis(3,4 dihydroxyphenyl) Imidazole] , is the recorded % Inhibition Amylin/IAPP (result ± S.D.), Congo red binding at or above 5%?
1.0
